Hello, the source for this data is patent US12139520B2, in case you need it.

Target: T1, hAMY3R (human, UniProt P30988)
T1 sequence 1: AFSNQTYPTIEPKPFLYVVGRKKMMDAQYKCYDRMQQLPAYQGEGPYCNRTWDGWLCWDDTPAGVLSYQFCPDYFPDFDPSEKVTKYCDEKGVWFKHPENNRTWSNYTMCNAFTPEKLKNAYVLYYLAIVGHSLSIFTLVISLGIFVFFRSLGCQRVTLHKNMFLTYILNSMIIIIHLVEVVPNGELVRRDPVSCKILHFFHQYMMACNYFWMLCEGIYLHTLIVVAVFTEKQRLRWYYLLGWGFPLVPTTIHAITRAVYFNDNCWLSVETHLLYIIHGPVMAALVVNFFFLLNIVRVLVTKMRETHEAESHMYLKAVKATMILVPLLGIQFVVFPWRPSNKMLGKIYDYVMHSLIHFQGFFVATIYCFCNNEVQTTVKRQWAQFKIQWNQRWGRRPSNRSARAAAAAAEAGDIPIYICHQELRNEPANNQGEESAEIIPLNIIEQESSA
T1 sequence 2: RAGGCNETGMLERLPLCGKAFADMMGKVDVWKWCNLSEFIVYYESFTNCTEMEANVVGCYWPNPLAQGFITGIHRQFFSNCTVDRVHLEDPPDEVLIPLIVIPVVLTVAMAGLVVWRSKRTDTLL
Assay: cell-based or functional assay
Numbered stars: 1 amine (or outer) side, 2 acyl side, 3 side chain; on linkers, the order of the positions; unused ones are H or OH. Bridge positions count the residues as written; N and C are the ends. Square brackets hold non-standard residues; d marks the D form. Side chains are listed from the residue outwards. Ends that are not written are not given here. * marks the point of attachment. C20 diacid = O=C(O)CCCCCCCCCCCCCCCCCCC(=O)*; γGlu = O=C(O)[C@H](CCC(=O)[*:2])N[*:1]; Hyp = O=C(O)[C@@H]1C[C@@H](O)CN1; Trx = NC[C@H]1CC[C@H](C(=O)O)CC1; Cit = NC(=O)NCCC[C@H](N)C(=O)O; AEEA = NCCOCCOCC(=O)O
I'd appreciate it if you could supply hAMY3R EC50 (cAMP) values for the items below.
Write down the numeric answer in nM and omit the unit.

Input: Give the value of hAMY3R EC50 (cAMP) reported for the following: GCRFGTCTVQRLAHQIYQFTDKDKDNVAPRSNISPNGY [SEQ ID NO: 383]
Output: 0.034

Input: Give the value of hAMY3R EC50 (cAMP) reported for the following: KCNTSTCTVA[Cit]LADQITQFSDKDKANVSPPTEVGPNS[Hyp]-NH2 (disulfide 2-7 (inferred); ends not checked) [SEQ ID NO: 247]
Output: 0.004

Input: Give the value of hAMY3R EC50 (cAMP) reported for the following: {C20 diacid-γGlu}-KCNTATCTVQRLAEQIYQFTDKAKDNVAPPTNVGSNG[Hyp]-NH2 (disulfide 2-7 (inferred); ends not checked) [SEQ ID NO: 122]
Output: 0.026

Input: Give the value of hAMY3R EC50 (cAMP) reported for the following: GCRTGTCTVQRLAHQIYQFTDKDKDNVAPRTNVSPNG[Hyp]-NH2 (disulfide 2-7 (inferred); ends not checked) [SEQ ID NO: 163]
Output: 0.053

Input: Give the value of hAMY3R EC50 (cAMP) reported for the following: {C20 diacid-Trx-γGlu-AEEA-AEEA}-K([AEEA-AEEA-γGlu-Trx-C20 diacid])CNTATCTVQRLAEQIYQFTDKDKDNVAPPTNVGSNG[Hyp] (disulfide 2-7 (inferred); ends not checked) [SEQ ID NO: 221]
Output: 0.184

Input: Give the value of hAMY3R EC50 (cAMP) reported for the following: GCRTGTCTVQRLAHQIYQFTDKDKDNVAPRTNVGPQG[Hyp]-NH2 (disulfide 2-7 (inferred); ends not checked) [SEQ ID NO: 49]
Output: 0.011

Input: Give the value of hAMY3R EC50 (cAMP) reported for the following: {C20 diacid-γGlu}-KCNTATCTVQRLAHQIYQFSDKDKDNVAPPTNVGSNG[Hyp]-NH2 (disulfide 2-7 (inferred); ends not checked) [SEQ ID NO: 57]
Output: 0.012

Input: Give the value of hAMY3R EC50 (cAMP) reported for the following: GCRTGTCTVQRLAHQIYQFTDKDKDNVAPRTNIGPQGY [SEQ ID NO: 160]
Output: 0.05

Input: Give the value of hAMY3R EC50 (cAMP) reported for the following: GCRFGTCTVQRLAHQIYQFTDKDKDNVAPRTNVGPNG[Hyp]-NH2 (disulfide 2-7 (inferred); ends not checked) [SEQ ID NO: 90]
Output: 0.016

Input: Give the value of hAMY3R EC50 (cAMP) reported for the following: {C20 diacid-γGlu}-KCNFATCTVQRLAHQIYQFTDKDKDNVAPPTEVGSNG[Hyp]-NH2 (disulfide 2-7 (inferred); not fully specified; ends not checked) [SEQ ID NO: 68]
Output: 0.013
